# credit: patent US7531565B2

Biological target: androgen receptor (Rattus norvegicus)
Test: L929 androgen receptor functional assay, adenovirus transduction
Type: cell-based
Parameters: expressed in transfected cells
Details: 3 μM; L929 cells, antagonist testing with R1881, luciferase
Experimental: L929 cells were plated in 96-well plates at 20,000 cells per well, in DMEM/F12 (GIBCO) containing 10% (v/v) charcoal-treated fetal bovine serum (Hyclone) and lacking phenol red. […] To each well was added 100 μL of Steady-Glo luciferase assay substrate (Promega) and the plates were placed on a rotary shaker for 1 min. […] The contents of each well were then transferred to a white microtiter plate (Packard) and read on a Luminoskan Ascent (Thermo Lab Systems). […]
parameter_measured: % Inhibition @ 3 μM (%)
Respond numerically; units are % and should not be typed.

compound: CC1(C(=O)O)CN(c2ccc(Cl)c(C(F)(F)F)c2)C(=O)N1 (racemic)
% Inhibition @ 3 μM / %: −30

Consider the additional compound presented here.
Query string: What does the record list as % Inhibition @ 3 μM for CC1(C(=O)Nc2ccc([N+](=O)[O-])c(C(F)(F)F)c2)CN(c2ccccc2)C(=O)N1 (racemic) ?
Result string: 96

###

Measured % Inhibition @ 3 μM by item
Molecular target: androgen receptor (Rattus norvegicus)
Assay: L929 androgen receptor functional assay, adenovirus transduction
Format: cell-based
Design: expressed in transfected cells
Details: 3 μM; L929 cells, antagonist testing with R1881, luciferase
Respond numerically; units are % and should not be typed.

Please review the entries below; each comes with its answer.
compound: COC(=O)C1(C)CN(c2ccccc2)C(=O)N1 (racemic) [Compound 4b]
% Inhibition @ 3 μM [%]: 34
//
compound: COc1ccc(N2CC(C)(C(=O)O)NC2=O)cc1 (racemic) [Compound 5c]
% Inhibition @ 3 μM [%]: −14
//
compound: CC1(C(=O)Nc2ccccc2)CN(c2ccccc2)C(=O)N1 (racemic) [Compound 6b]
% Inhibition @ 3 μM [%]: 54

Query string: Give % Inhibition @ 3 μM (androgen receptor (Rattus norvegicus)) of the following compound: CC1(C(=O)O)CN(c2ccc(C#N)c(C(F)(F)F)c2)C(=O)N1 (racemic) [Compound 5e]
Result string: 30

Query string: Give % Inhibition @ 3 μM (androgen receptor (Rattus norvegicus)) of the following compound: COC(=O)C1(C)CN(c2ccc(Cl)c(C(F)(F)F)c2)C(=O)N1 (racemic) [Compound 4d]
Result string: 1

###

Target: androgen receptor (Rattus norvegicus, UniProt P15207)
Sequence (P15207 whole entry S389L): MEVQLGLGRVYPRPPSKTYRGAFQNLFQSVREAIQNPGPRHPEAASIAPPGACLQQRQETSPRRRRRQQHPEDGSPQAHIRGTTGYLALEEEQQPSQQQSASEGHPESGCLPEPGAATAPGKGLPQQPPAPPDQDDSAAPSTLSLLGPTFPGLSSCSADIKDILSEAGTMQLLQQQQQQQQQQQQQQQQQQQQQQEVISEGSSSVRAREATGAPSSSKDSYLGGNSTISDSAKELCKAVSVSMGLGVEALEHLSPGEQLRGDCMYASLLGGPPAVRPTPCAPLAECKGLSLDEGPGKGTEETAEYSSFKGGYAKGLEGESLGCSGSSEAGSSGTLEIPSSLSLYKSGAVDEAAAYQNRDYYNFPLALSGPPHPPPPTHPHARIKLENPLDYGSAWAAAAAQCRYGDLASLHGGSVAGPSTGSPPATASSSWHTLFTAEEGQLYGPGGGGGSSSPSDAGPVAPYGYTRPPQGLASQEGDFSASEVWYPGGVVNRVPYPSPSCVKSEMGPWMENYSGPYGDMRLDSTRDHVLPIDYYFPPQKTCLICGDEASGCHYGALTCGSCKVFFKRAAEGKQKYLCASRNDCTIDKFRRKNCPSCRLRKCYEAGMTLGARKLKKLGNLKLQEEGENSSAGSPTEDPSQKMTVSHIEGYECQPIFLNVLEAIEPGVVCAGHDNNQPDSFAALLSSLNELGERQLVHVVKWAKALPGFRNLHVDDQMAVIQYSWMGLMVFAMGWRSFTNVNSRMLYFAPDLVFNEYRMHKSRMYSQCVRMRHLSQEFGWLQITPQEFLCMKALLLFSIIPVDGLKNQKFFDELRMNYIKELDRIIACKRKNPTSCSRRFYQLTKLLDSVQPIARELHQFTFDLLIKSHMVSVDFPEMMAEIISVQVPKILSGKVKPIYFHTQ
Experiment: L929 androgen receptor functional assay, adenovirus transduction
Format: cell-based
Set-up: expressed in transfected cells
Details: 3 μM; L929 cells, antagonist testing with R1881, luciferase
So basically: % Inhibition @ 3 μM at 30% or higher? That is satisfied. Lower than 30%? That is not satisfied.

compound: COC(=O)C1(C)CN(c2ccc(C#N)c(C(F)(F)F)c2)C(=O)N1 (racemic)
discrete_label: not satisfied

Query string: Quick check, % Inhibition @ 3 μM >= 30%? CC1(C(=O)O)CN(c2ccccc2)C(=O)N1 (racemic)
Result string: satisfied

Query string: Quick check, % Inhibition @ 3 μM >= 30%? COC(=O)C1(C)CN(c2ccc(OC)cc2)C(=O)N1 (racemic)
Result string: not satisfied

Query string: Quick check, % Inhibition @ 3 μM >= 30%? CC1(C(=O)Nc2ccc(Cl)c(C(F)(F)F)c2)CN(c2ccc(F)cc2)C(=O)N1 (racemic)
Result string: satisfied

Query string: Quick check, % Inhibition @ 3 μM >= 30%? CC1(C(=O)Nc2ccc(C#N)c(C(F)(F)F)c2)CN(c2ccccc2)C(=O)N1 (racemic)
Result string: satisfied
